# credit: patent US4921866A

- ASSAYED_TARGET: TXA2 synthase (Homo sapiens, UniProt P24557)
- Sequence (P24557 whole entry): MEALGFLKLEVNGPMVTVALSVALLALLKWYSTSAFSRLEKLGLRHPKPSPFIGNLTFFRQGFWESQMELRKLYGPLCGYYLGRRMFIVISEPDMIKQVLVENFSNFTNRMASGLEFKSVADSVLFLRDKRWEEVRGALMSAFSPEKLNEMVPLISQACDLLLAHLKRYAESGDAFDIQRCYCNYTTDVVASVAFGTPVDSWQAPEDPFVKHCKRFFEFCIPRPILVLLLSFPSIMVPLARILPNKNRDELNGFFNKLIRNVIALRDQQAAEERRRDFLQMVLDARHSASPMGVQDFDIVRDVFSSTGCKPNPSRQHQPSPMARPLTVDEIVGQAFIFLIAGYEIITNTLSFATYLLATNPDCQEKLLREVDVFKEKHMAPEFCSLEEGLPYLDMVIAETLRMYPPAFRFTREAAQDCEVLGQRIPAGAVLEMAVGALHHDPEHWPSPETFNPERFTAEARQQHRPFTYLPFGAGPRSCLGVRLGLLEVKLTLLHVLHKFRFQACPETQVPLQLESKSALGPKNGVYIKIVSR
MEASUREMENT_TYPE: IC50 (µM)
Note: unit µM is implicit; provide only the numeric part.

[in] Please state recorded IC50 (tested on TXA2 synthase (Homo sapiens, UniProt P24557)) of O=C(O)CC/C=C\C[C@@H]1CO[C@H](c2cccnc2)O[C@@H]1c1ccccc1O (relative stereo)
[out] 3.14
